# Tested on: MAP3K2
# Assay context: concentration: 1 μM, replicates: in singlicate; n = 1;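 note: KINOMEscan kinase panel screen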
Readout type: %Inh (%)
The reply should be a number in %, with the unit left off.

>>> print(df.to_string())
                              sample_smiles  recorded_measurement
0  COc1cc2ncn(-c3cc(OCc4sccc4Cl)c(C(N)=O)s3)c2cc1OC                    10
1  c1ccc(-c2cc(-c3c[nH]nc3-c3ccccn3)ccn2)cc1                     0
2  NS(=O)(=O)CCc1cccc(Nc2nccc(-c3c(-c4cccc(NC(=O)c5c(F)cccc5F)c4)nn4ccccc34)n2)c1                    88

Next item in the queue.
**Q:** Query (molecule): N#Cc1c(N2CCOCC2)sc(-c2ccn[nH]2)c1-c1ccc(Cl)cc1 ; field requested: %Inh
**A:** 0

----------
# System: MST1
# Construct: gene STK4
# Assay context: concentration: 1 μM, replicates: in singlicate; n = 1
Readout type: %Inh (%)
The reply should be a number in %, with the unit left off.

Some molecules with recorded %Inh:
                                   molecule  tested_system  recorded_measurement
0  COc1ccc(CNC(=O)NC2CCN(c3ccnc(Nc4ccc(OC)cc4)n3)C2)cc1 (stereo not drawn)           MST1                     0
1  NS(=O)(=O)c1cccc(-c2ccc3ncc(N4CCOCC4)nc3c2)c1           MST1                     0
2  O=c1cc(N2CCOCC2)nc2n(Cc3cccc(C(F)(F)F)c3)ccn12           MST1                    10
3  Fc1ccc(-c2nn3c(OCC(F)(F)F)cccc3c2-c2ccncc2)cc1           MST1                     0
4  NS(=O)(=O)CCc1cccc(Nc2nccc(-c3c(-c4cccc(NC(=O)c5c(F)cccc5F)c4)nn4ccccc34)n2)c1           MST1                  94.9

Next item in the queue.
**Q:** Query (molecule): O=C(c1ccc(-c2cc(-c3c[nH]nc3-c3ccccn3)ccn2)cc1)N1CCOCC1 ; field requested: %Inh
**A:** 4

----------
# System: ACVR1B
# Assay context: concentration: 1 μM, replicates: in singlicate; n = 1
We label by threshold. Values of %Inh strictly beneath 6% are 1. Values of 6% and up are 0.

These solved cases illustrate the format of a correct answer.
                                   molecule  tested_system  assigned_class
0  O=C(NCCCN1CCOCC1)c1cccc(Nc2nccc(Nc3ccc(Oc4ccccc4)cc3)n2)c1         ACVR1B               1
1  Cc1c(Cn2c(C)nn3c(=O)cc(N4CCOC(C)C4)nc23)cccc1C(F)(F)F (centres unmarked)         ACVR1B               1
2      CN(C1=C(c2ccccc2)C(=O)NC1=O)c1ccccc1         ACVR1B               1

**Q:** Strictly below 6%: is that where %Inh of Cn1cc(-c2ccc3c(c2)CCN3C(=O)Cc2ccccc2Cl)c2c(N)ncnc21 sits?
**A:** 1

**Q:** Let us now turn to COc1cc(Nc2nccc(N3CCC(NC(=O)c4cccc(NC(C)=O)c4)C3)n2)cc(OC)c1OC (centres unmarked)
**A:** 1

**Q:** Let us now turn to Cl.Nc1ncnc2occ(-c3ccc(NC(=O)Nc4cc(C(F)(F)F)ccc4F)cc3)c12
**A:** 1

**Q:** Let us now turn to Fc1ccc(-c2nn3c(OCC(F)(F)F)cccc3c2-c2ccncc2)cc1
**A:** 0

**Q:** Let us now turn to NS(=O)(=O)CCc1cccc(Nc2nccc(-c3c(-c4cccc(NC(=O)c5c(F)cccc5F)c4)nn4ccccc34)n2)c1
**A:** 0

**Q:** Let us now turn to O=C(c1ccc(-c2cc(-c3c[nH]nc3-c3ccccn3)ccn2)cc1)N1CCOCC1
**A:** 0

**Q:** Let us now turn to [2H]C([2H])(c1cccc(C(F)(F)F)c1C)n1ccn2c(=O)nc(N3CCOCC3)cc12
**A:** 1

----------
# System: p38-alpha
# Construct: gene MAPK14
# Assay context: concentration: 1 μM, replicates: in singlicate; n = 1
Readout type: %Inh (%)
The reply should be a number in %, with the unit left off.

>>> print(df.to_string())
                              sample_smiles  recorded_measurement
0  N#Cc1ccc(-c2cc(-c3c[nH]nc3-c3ccccn3)ccn2)cc1                    30
1  Fc1ccc(-c2nn3c(OCC(F)(F)F)cccc3c2-c2ccncc2)cc1                  99.9
2  CN1c2ccc(CNc3ccc(F)cc3)cc2-c2c(cnn2C)S1(=O)=O                     0
3                CCCCCc1nc2c(N)ncnc2n1CCCCC                     0
4  O=c1cc(N2CCOCC2)nc2n(Cc3cccc(C(F)(F)F)c3)ccn12                     0

**Q:** Form field - read-out: %Inh; system: p38-alpha; submitted item: COc1cc2c(cc1OC[C@@H](O)CO)ncc1c3ccc(C#N)cc3[nH]c21
**A:** 5

**Q:** Let us now turn to CCn1cnc2c(N)ncnc21
**A:** 5

----------
# Test system: MEK5
# Construct: gene MAP2K5
# Assay context: concentration: 1 μM, replicates: in singlicate; n = 1
Readout type: %Inh (%)
The reply should be a number in %, with the unit left off.

                              sample_smiles  readout_type  recorded_measurement
0  Fc1ccc(-c2ncn(CCCN3CCOCC3)c2-c2cccnc2)cc1          %Inh                    15
1  O=C(NCCNc1ccnc(Nc2ccc(F)cc2)n1)c1cc2ccccc2s1          %Inh                    22
2  COc1cc2c(cc1OCCN1CCN(C)CC1)ncc1c3ccc(C#N)cc3[nH]c21          %Inh                  99.9

**Q:** Query (compound): CC(C)Oc1ccc2c(-c3ccnc(Nc4ccc(N5CCN(C)CC5)cc4)n3)cnn2n1 ; field requested: %Inh
**A:** 82

**Q:** Let us now turn to O=C(NOCC1CC1)c1ccc(F)c(F)c1Nc1ccc(I)cc1Cl
**A:** 0

----------
# Test system: JAK1(JH1domain-catalytic)
# Assay context: concentration: 1 μM, replicates: in singlicate; n = 1
Please note: class 1 applies when %Inh is 8% or greater, and class 0 applies otherwise.

These solved cases illustrate the format of a correct answer.
>>> print(df.to_string())
                                   compound              tested_system  assigned_class
0  COc1ccc(CNC(=O)NC2CCN(c3ccnc(Nc4ccc(OC)cc4)n3)C2)cc1 (stereo not shown)  JAK1(JH1domain-catalytic)         class 1
1  COc1cc2c(cc1OC[C@@H](O)CO)ncc1c3ccc(C#N)cc3[nH]c21  JAK1(JH1domain-catalytic)         class 0
2  COc1ccc(Nc2nccc(N3CCC(NC(=O)Nc4cccc(C(C)=O)c4)C3)n2)cc1 (stereo not shown)  JAK1(JH1domain-catalytic)         class 0
3  Fc1ccc(-c2nn3c(OCC(F)(F)F)cccc3c2-c2ccncc2)cc1  JAK1(JH1domain-catalytic)         class 1
4  Cc1nnc(-c2ccc(C)c(-c3ccc(C(=O)Nc4ccc(NS(C)(=O)=O)cc4)cc3)c2)o1  JAK1(JH1domain-catalytic)         class 1

**Q:** Determine whether this compound has %Inh no lower than 8%: CCCCCc1nc2c(N)ncnc2n1CCCCC
**A:** class 0

**Q:** Let us now turn to Cc1cccc(-c2nc(Nc3ccc4ncsc4c3)c3ccccc3n2)n1
**A:** class 0

**Q:** Let us now turn to Nc1nc(-c2ccc3c(N)n[nH]c3c2)cc(N2CCCC2)n1
**A:** class 0

**Q:** Let us now turn to COc1ccc(Nc2nccc(N3CCC(NC(=O)Nc4cc(C)ccc4C)C3)n2)cc1 (stereo not shown)
**A:** class 1

----------
# Tested on: TIE2
# Construct: gene TEK
# Assay context: concentration: 1 μM, replicates: in singlicate; n = 1
%Inh: recorded values
The reply should be a number in %, with the unit left off.

Some compounds with recorded %Inh:
>>> print(df.to_string())
                                   compound  recorded_measurement
0   O=c1cc(N2CCOCC2)nc2n(Cc3cccc(F)c3)ccn12                     0
1  O=c1cc(N2CCOCC2)nc2n(Cc3cccc(Cl)c3Cl)c(C3CC3)nn12                     0
2                CCCCCc1nc2c(N)ncnc2n1CCCCC                    19
3  CC(=O)Nc1ccc(COc2ccc(Nc3ccnc4cc(-c5ccccn5)ccc34)cc2)cc1.Cl                     6
4  Nc1nc(-c2ccc3c(N)n[nH]c3c2)cc(N2CCCC2)n1                     0

**Q:** Query (compound): NCC(NC(=O)c1cc(-c2cn[nH]c2)c(-c2ccnc3[nH]ccc23)s1)c1ccccc1.O=C(O)C(F)(F)F.O=C(O)C(F)(F)F (stereo not drawn) ; field requested: %Inh
**A:** 0

**Q:** Let us now turn to Cc1nnc(-c2ccc(C)c(-c3ccc(C(=O)Nc4ccc(NS(C)(=O)=O)cc4)cc3)c2)o1
**A:** 0

**Q:** Let us now turn to Cl.Oc1cccc(Nc2ccnc3cc(-c4ccncc4)ccc23)c1
**A:** 48

**Q:** Let us now turn to O=C(NOCC1CC1)c1ccc(F)c(F)c1Nc1ccc(I)cc1Cl
**A:** 0
